# method.notes: chemical genetic growth profiling, strain panel (AID 1159580);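 note: tested at 20 µM; growth read once vehicle control cultures reached saturation at 30 °C; 1 = growth at the plate median or of vehicle wells; lower values mean less growth of the strain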
# condition.parameters: S. cerevisiae deletion strains, growth OD, locus YLR258W, strain gsy2
The whole screen tested about 5,500 compounds, of which about 2,000 (36%) were called active. Inconclusive results (about 18%) are left out. Cut-off read from the data, not from the text of the source: active = normalized growth mostly below about 0.91 (no sharp cut-off); inconclusive = no clear call, values can overlap the other calls; inactive = mostly above about 0.92. Some of the results follow.
Possible outcomes: active, inactive

- COc1ccc(C2Sc3ccccc3N(CCN(C)C)C(=O)C2OC(C)=O)cc1 (stereo not drawn): inactive
- CN(C)CCCN1c2ccccc2CCc2ccccc21: inactive
- Cc1cn[nH]c1: inactive
- Cc1cc(=O)oc2cc(O)c(O)cc12: inactive
- CC(C)C[C@@H](CN)CC(=O)O: inactive
- CC(C)CCCC(C)[C@H]1CCC2C3C(=O)C=C4C[C@@H](O)CC[C@]4(C)C3CC[C@@]21C (stereo partly drawn): inactive
- N=C(N)N: inactive
- CCOC(=O)NNc1nncc2ccccc12: inactive
- Cc1scc2c1N(C(=O)CN1CCN(C)CC1)c1ccccc1NC2=O: inactive
- Cc1cc(=O)oc2cc(O)cc(O)c12: inactive
- Oc1c(Cl)cc(Cl)cc1Sc1cc(Cl)cc(Cl)c1O: active
- O=C(O)C1=CCCNC1: inactive
- C/C1=C/CC(C)(C)/C=C/C/C(C)=C/CC1: inactive

---

// reported normalized growth per item
# method.notes: chemical genetic growth profiling, strain panel (AID 1159580);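 note: tested at 20 µM; growth read once vehicle control cultures reached saturation at 30 °C; 1 = growth at the plate median or of vehicle wells; lower values mean less growth of the strain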
# condition.parameters: S. cerevisiae deletion strains, growth OD, locus YNR052C, strain pop2, active compounds read low
The campaign covered roughly 5,500 compounds. About 2,000 (36%) were called active. Roughly 18% stayed inconclusive and do not appear here. The list shows a part of the results.
recorded.endpoint: normalized growth

- CC(=O)Oc1ccc(C(c2ccc(OC(C)=O)cc2)c2ccccn2)cc1: 0.997
- CN[C@@H]1[C@H](O)[C@H](NC)[C@H]2O[C@@]3(O)C(=O)C[C@@H](C)O[C@H]3O[C@@H]2[C@H]1O: 1.02
- CCC(C)[C@H]1O[C@]2(C=C[C@@H]1C)C[C@@H]1C[C@@H](C/C=C(\C)[C@@H](OC3C[C@H](OC)C(O[C@H]4C[C@H](OC)[C@@H](O)[C@H](C)O4)[C@H](C)O3)[C@@H](C)/C=C/C=C3\CO[C@@H]4[C@H](O)C(C)=C[C@@H](C(=O)O1)[C@]34O)O2 (stereo not given in full): 0.952
- CC12CCC(=O)C=C1CCC1C2[C@@H](O)CC2(C)C1CC[C@]2(O)C(=O)COP(=O)(O)O (stereo not given in full): 0.998
- CC(=O)Oc1cccc(O)c1: 1.01
- COC(=O)/C(=C1\OC(=O)C(c2ccccc2)=C1O)c1ccccc1: 1.01
- CC(=O)Oc1ccc(O)cc1: 1.02
- NC(=O)NC(=O)Cc1ccccc1: 0.989
- CC(=O)Oc1ccc(/C=C/c2cc(OC(C)=O)cc(OC(C)=O)c2)cc1: 0.981
- CCCc1c(OCCCCc2nn[nH]n2)ccc(C(C)=O)c1O: 0.981

---

Reported normalized growth values for a set of compounds
# method.notes: chemical genetic growth profiling, strain panel (AID 1159580);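 note: tested at 20 µM; growth read once vehicle control cultures reached saturation at 30 °C; 1 = growth at the plate median or of vehicle wells; lower values mean less growth of the strain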
# condition.parameters: S. cerevisiae deletion strains, growth OD, locus YAL026C, strain drs2, active compounds read low
Among all 5,500 compounds or so, about 2,000 (36%) were called active. Roughly 18% stayed inconclusive and do not appear here. The list shows a part of the results.
recorded.endpoint: normalized growth

- Cc1nc(N)cc(C[n+]2csc(CCO)c2C)n1: 0.974
- O=P1(NCCCl)OCCCN1CCCl (centres undefined): 0.991
- CCN1CCN(C(=O)NC(C(=O)N[C@@H]2C(=O)N3[C@@H]2SC(C)(C)[C@@H]3C(=O)O)c2ccccc2)C(=O)C1=O (some centres undefined): 0.999
- OC[C@H]1O[C@@H](O[C@@H]2[C@@H](CO)O[C@](O)(CO)[C@H]2O)[C@H](O)[C@@H](O)[C@H]1O: 1.01

All values here come from PubChem BioAssay AID1159580.
